Each record here notes measured apparent KD of MS2 coat protein.
Test system: MS2 coat protein
METHOD SUMMARY: apparent KD of MS2 coat protein; designed switch direction (-1 OFF switch, 1 ON switch): -1; higher = weaker reporter binding
CONDITION DETAILS: input ligand: none
Just the number please, in µM, no unit attached.

Reference set, count: 2
CONSTRUCT SEQUENCE | apparent KD of MS2 coat protein, µM
GGGCCCGGAGGAUAUACAAUGCGCGCGCGAAAGUGUGUGUUACAUGAGGAUCACCCAUGUAGAAGGCCGGGCCC [-39.9, -36.7 kcal A 24%, 6,0] (Eterna round: R97, puzzle: Exclusion 2) | 0.0167
UAAGGACAUGAGGAUCACCCAUGUUAGGAUAUGCCGAGGGAGACCCGUGUUGACACUUGCAGAAGGAGUAUGGG [Eternabot (L1) Solution 25] (Eterna round: R97, puzzle: Exclusion 1) | 0.0862

Enquiry: Field: apparent KD of MS2 coat protein (MS2 coat protein). Entry: AGCUGUGGCCGAGGAUAUCACAUGAGGAUCACCCAUGUACAUGAUUAGGCCUGGUAACAGGCUCAUGAGAAGGCGGUCUCAGCA [Eli eng2 - 013] (Eterna round: R96, puzzle: Exclusion NG 2)
Return: 0.0224

Enquiry: API: value(readout=apparent KD of MS2 coat protein, system=MS2 coat protein) for record AAAUCGGUAGAGGAUAUUGUACAGGAAACGGUGCAAGAAGGUUACACAUGAGGAUCACCCAUGUUAAAUAGCGA [EX6 #53] (Eterna round: R97, puzzle: Exclusion 6)
Return: 0.0181
